Parameter Measured: melting point

Recorded result, O=C1NC(Cc2ccccc2)C(O)C(O)C(Cc2ccccc2)N1Cc1ccc2ccccc2c1 (stereo not shown) , melting point: 210 to 213 °C

Recorded result, CCCCN1C(=O)N(Cc2ccc3ccccc3c2)C(Cc2ccccc2)C(O)C(O)C1Cc1ccccc1 (stereo not shown) , melting point: 78 to 80 °C

Recorded result, CCCCN1C(=NC#N)N(CCCC)C(Cc2ccccc2)C(O)C(O)C1Cc1ccccc1 (stereo not shown) , melting point: 58.3 °C

Recorded result, O=C1N(Cc2cccc([N+](=O)[O-])c2)C(Cc2ccccc2)C(O)C(O)C(Cc2ccccc2)N1Cc1cccc([N+](=O)[O-])c1 (stereo not shown) , melting point: 248.3 °C

Recorded result, O=C1N(Cc2ccc(F)cc2)C(Cc2ccccc2)C(O)C(O)C(Cc2ccccc2)N1Cc1ccc2ccccc2c1 (stereo not shown) , melting point: 105 to 107 °C

Recorded result, C=CCN1C(=O)N(Cc2ccc3ccccc3c2)C(Cc2ccccc2)C(O)C(O)C1Cc1ccccc1 (stereo not shown) , melting point: 72 to 74 °C

Recorded result, O=C1N(Cc2ccc3cn[nH]c3c2)C(Cc2ccccc2)C(O)C(O)C(Cc2ccccc2)N1Cc1ccc2cn[nH]c2c1 (stereo not shown) [15CY] , melting point: 170 to 175 °C

The origin of these recorded values is patent USRE37781E1.
